# Tested on: K-562 leukemia
# TEST_METHOD_NOTES: NCI tumour cell line growth inhibition, 48 h
Consider the following molecules and their measured TGI readings.
ENDPOINT_LABEL: TGI

INSERT INTO assay_data (molecule, endpoint_label, result) VALUES
  ('CN(C)c1ccc(/C=c2/sc3nc(=O)c(-c4ccccc4NC(=O)C(F)(F)F)nn3c2=O)cc1', 'TGI', '> 100 µM'),
  ('Cc1nc2ccc(N=Nc3c(C)noc3C)cc2[nH]1', 'TGI', '> 100 µM'),
  ('CCc1nc(N)nc(N)c1-c1ccc(N2CCOCC2)c(N=[N+]=[N-])c1', 'TGI', '> 90.6 µM'),
  ('Fc1ccc2c(c1)SC1=Nc3sc4cc(F)ccc4[n+]3CN12', 'TGI', '43.9 µM'),
  ('COC(=O)C(C)NP(=O)(OCc1cccc(Cn2cnc3c(N)ncnc32)c1)Oc1ccccc1 (stereo not given)', 'TGI', '> 100 µM'),
  ('Cc1ccc2c(=O)cc(-c3cc(C)sc3C)[nH]c2n1', 'TGI', '> 100 µM'),
  ('CC(C)(C)n1c(=O)n2c(-c3ccccc3)c(-c3ccccc3)n2c1=O', 'TGI', '> 100 µM'),
  ('CN(/N=C/c1ccccn1)C1=NCCN1', 'TGI', '> 100 µM'),
  ('N#CC1=C(S)N(C2OC(CO)C(O)C(O)C2O)C(c2ccccc2)=CC1c1ccco1 (stereo not given)', 'TGI', '> 100 µM'),
  ('C#CCCCCCC(=O)N[C@H]1C=C[C@@H]2/C=C(C)/C=C/[C@@H](C)[C@H]([C@H](C)[C@H](O)[C@@H](C)NC(C)=O)OC(=O)/C=C/C=C(C)\C=C\[C@]2(C)C1', 'TGI', '> 40 µM');

----------
# Tested on: RXF 393 renal
# TEST_METHOD_NOTES: NCI tumour cell line growth inhibition, 48 h
Consider the following compounds and their measured TGI readings.
ENDPOINT_LABEL: TGI

INSERT INTO assay_data (compound, result) VALUES
  ('Cc1[nH]c(=O)c2oc3cc4ccccc4cc3c2c1C(=O)O', '> 10 µM'),
  ('O=C(O)CCC(NC(=O)c1ccc(Nc2nc3ccc(C(F)(F)F)cc3nc2C(=O)O)cc1)C(=O)O (configuration not stated)', '> 100 µM'),
  ('COC(=O)N/N=C(\C)c1sc(-c2nc(C)c(/C(C)=N/NC(=O)OC)s2)nc1C', '> 100 µM'),
  ('COC(=O)C1CC2CC1C1C2SC(F)(F)C1(F)F (configuration not stated)', '> 100 µM'),
  ('CC(C)(C)OC(=O)/N=C/c1c(O)c2ccccc2oc1=O', '> 100 µM'),
  ('CCOC(=O)c1cn(-c2ccc([N+](=O)[O-])cc2)c(=S)n2c1nc1ccccc12', '> 100 µM'),
  ('CC(=O)O[C@H]([C@H](OC(C)=O)[C@H](C)OC(C)=O)[C@@H](/C=C/[C@H]1CC=CC(=O)O1)OC(C)=O', '> 100 µM'),
  ('COc1ccc([C@@H]2[C@@H](Oc3ccccc3)C(=O)N2c2cc(OC)c(OC)c(OC)c2)cc1F', '> 100 µM'),
  ('c1ccc(C(NC2=NCCO2)C2CC2)cc1 (configuration not stated)', '> 100 µM'),
  ('O=C1C[C@@H]2OCC=C3C[N+]4([O-])CC[C@]56c7ccccc7N1[C@H]5[C@H]2[C@H]3C[C@@H]64 (some centres not stated)', '> 100 µM'),
  ('CC[C@@H]1CC[C@@H]2[C@H](CC[C@]3(C)[C@@H](O[N+](=O)[O-])CC[C@@H]23)[C@H]1C(C)=O', '> 100 µM'),
  ('CCOc1ccc(OP2(=O)NC(=O)C=C(C)N2)cc1 (configuration not stated)', '> 100 µM'),
  ('COc1cc2c(Oc3ccc(-c4cnc(Nc5ccc(F)cc5)n(C)c4=O)cc3F)ccnc2cc1OCCCN1CCOCC1', '2.04 µM'),
  ('COC(=O)C1CC(=O)O[C@H]1c1ccc(OC)c(OC)c1 (some centres not stated)', '> 100 µM'),
  ('CN(C)[C@@H]1C(=O)C(C(=O)NCc2nc3[nH]cnc(=S)c3[nH]2)=C(O)[C@@]2(O)C(=O)C3=C(O)c4c(O)cccc4[C@@](C)(O)[C@H]3C[C@@H]12', '> 100 µM'),
  ('CC(C)(C)C1CC[C@H]2c3c([nH]c4ccccc34)[C@H]3C(=O)N(c4ccc(F)cc4)C(=O)[C@H]3[C@H]2C1 (some centres not stated)', '43.9 µM'),
  ('C/C=C1/C=CC2c3[nH]c4ccccc4c3CCN2C1 (configuration not stated)', '> 400 µM'),
  ('CC(=O)Oc1ccc(-c2nnc(-c3ccc(OC(C)=O)cc3)nn2)cc1', '> 100 µM'),
  ('Cc1cc2nnn(C3CCCCO3)c2cc1C (configuration not stated)', '> 100 µM'),
  ('OCc1ccc(N2CCc3ccc(F)cc3C2)cc1Cl', '12.1 µM'),
  ('O=C(O)CSc1cc(NS(=O)(=O)c2ccc(Br)cc2)c2ccccc2c1O', '27.9 µM'),
  ('CCCN1C(=O)CN(S(=O)(=O)c2ccc(Cl)cc2)C1=O', '> 100 µM');

----------
# Test system: SR leukemia
# TEST_METHOD_NOTES: NCI tumour cell line growth inhibition, 48 h
ENDPOINT_LABEL: TGI

INSERT INTO assay_data (compound, result) VALUES
  ('CS(=O)(=O)CCC1CCC(=O)O1 (stereo not given)', '> 100 µM'),
  ('C/C(=C\c1ccccc1)C(O)C(=O)c1nc2ccc(Cl)cc2[nH]c1=O (stereo not given)', '> 100 µM'),
  ('Cc1[nH]c(=O)c2oc3cc4ccccc4cc3c2c1C(=O)O', '> 10 µM'),
  ('CC1=C(C(=O)Nc2ccc3[nH]ncc3c2)C(c2ccc(F)cc2)N=C(c2ccc(C(F)(F)F)nc2)N1 (stereo not given)', '> 25 µM'),
  ('NS(=O)(=O)c1cc2c(cc1Cl)NCNS2(=O)=O', '> 100 µM'),
  ('CCCCCCCCCCN=C(N)c1ccc(N2CCN(c3ccc(C(N)=NCCCCCCCCCC)cc3)CC2)cc1', '> 50 µM'),
  ('CC(=O)O[C@H]1C[C@@H]2[C@@]3(C)CC[C@H]4C[C@@]4(C)[C@@H]3CC[C@@]2(C)C2=CCC3=C(COC3=O)[C@]21C', '> 100 µM'),
  ('COc1ccc([C@@H]2[C@@H](Oc3ccccc3)C(=O)N2c2cc(OC)c(OC)c(OC)c2)cc1F', '> 100 µM'),
  ('N#Cc1c(CC(=O)O)cc(=O)n2c1[nH]c1ccccc12', '> 100 µM'),
  ('N#CC1(CCCCl)CCCCC1', '> 100 µM');

----------
# System: OVCAR-3 ovarian
# TEST_METHOD_NOTES: NCI tumour cell line growth inhibition, 48 h; in the data active = GI50 below about 0.43 µM; inactive = the rest
Outcomes: TRUE = active, FALSE = inactive

INSERT INTO measurements (compound, class) VALUES
  ('O=C1c2ccccc2-c2c1c1c(O)cccc1n2Cc1ccccc1', 'FALSE'),
  ('Cc1ccc(-c2nc([P+](c3ccccc3)(c3ccccc3)c3ccccc3)c(N3CCOCC3)o2)cc1', 'TRUE'),
  ('CC(C)(C)OC(=O)CC(NC(=O)OCc1ccccc1)NC(=O)OC(C)(C)C (centres undefined)', 'FALSE'),
  ('O=C1NC(=O)N(S(=O)(=O)c2cc(C(=O)Nc3ccc(Cl)cc3)c(Cl)cc2S)S(=O)(=O)N1', 'FALSE');

----------
Consider the following molecules and their measured TGI readings.
# System: SF-539 CNS
# TEST_METHOD_NOTES: NCI tumour cell line growth inhibition, 48 h
ENDPOINT_LABEL: TGI

INSERT INTO measurements (molecule, target_system, endpoint_label, result) VALUES
  ('COC(=O)N/N=c1\cc(C(=O)Nc2ccc(C)c(C)c2)oc2cc(O)ccc12', 'SF-539 CNS', 'TGI', '> 100 µM'),
  ('COC(=O)C1=C(OC)C(=P2(c3ccccc3)CC(c3ccccc3)=C2c2ccccc2)C(C(=O)OC)=C1C(=O)OC (stereo not given)', 'SF-539 CNS', 'TGI', '> 95.5 µM'),
  ('O=c1c(Oc2ccc(F)cc2F)cc2cnc(NC3CCOCC3)nc2n1C1CC1', 'SF-539 CNS', 'TGI', '> 25 µM'),
  ('C=C(C)c1nc(Oc2ccccc2)nc(Oc2ccccc2)n1', 'SF-539 CNS', 'TGI', '14.5 µM'),
  ('CC(C)(C)c1ccc(OCCOCCOc2ccc(C(C)(C)C)cc2S(N)(=O)=O)c(S(N)(=O)=O)c1', 'SF-539 CNS', 'TGI', '> 100 µM');
